SYSTEM_TESTED: T1, ICAM-1-Fcγ (ICAM-1 residues of 1-480 fused to the Fc of human IgG, R&D Systems) (human, UniProt P05362 28-480)
T1 construct: range 1-480; Bought (R&D Systems); also called ICAM-1-Fcγ chimera; not shown: Fc of human IgG
MEASUREMENT_DESCRIPTION: SPR (Biacore 3000), I domain injected over ICAM-1-Fcγ-coupled CM5 chip, 10 mM MgCl2
Recorded kon by entry
Answer with a number only, understood to be in M⁻¹ s⁻¹.

Known results for binders:
* soluble αL I domain mutant F265S, Asn-129 to Tyr-307 (receptor) NVDLVFLFDGSMSLQPDEFQKILDFMKDVMKKLSNTSYQFAAVQFSTSYKTEFDFSDYVKWKDPDALLKHVKHMLLLTNTFGAINYVATEVFREELGARPDATKVLIIITDGEATDSGNIDAAKDIIRYIIGIGKHSQTKESQETLHKFASKPASEFVKILDTFEKLKDLFTELQKKIY | 11800
* soluble αL I domain mutant F292A, Asn-129 to Tyr-307 (receptor) NVDLVFLFDGSMSLQPDEFQKILDFMKDVMKKLSNTSYQFAAVQFSTSYKTEFDFSDYVKWKDPDALLKHVKHMLLLTNTFGAINYVATEVFREELGARPDATKVLIIITDGEATDSGNIDAAKDIIRYIIGIGKHFQTKESQETLHKFASKPASEFVKILDTAEKLKDLFTELQKKIY | 9500
* soluble αL I domain double mutant F265S/F292G, Asn-129 to Tyr-307 (receptor) NVDLVFLFDGSMSLQPDEFQKILDFMKDVMKKLSNTSYQFAAVQFSTSYKTEFDFSDYVKWKDPDALLKHVKHMLLLTNTFGAINYVATEVFREELGARPDATKVLIIITDGEATDSGNIDAAKDIIRYIIGIGKHSQTKESQETLHKFASKPASEFVKILDTGEKLKDLFTELQKKIY | 25000

Let us examine a further case.
Data point: soluble αL I domain mutant F292G, Asn-129 to Tyr-307 (receptor) NVDLVFLFDGSMSLQPDEFQKILDFMKDVMKKLSNTSYQFAAVQFSTSYKTEFDFSDYVKWKDPDALLKHVKHMLLLTNTFGAINYVATEVFREELGARPDATKVLIIITDGEATDSGNIDAAKDIIRYIIGIGKHFQTKESQETLHKFASKPASEFVKILDTGEKLKDLFTELQKKIY ; kon = 16000
